Test: NCI Yeast Anticancer Drug Screen. Data for the wt2 strain (AID 169);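 also: 0% = growth of vehicle-treated yeast cultures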
Details: S. cerevisiae wt2 strain growth inhibition; at 11.0 µM
The panel holds about 79,000 compounds, 15% with a hit somewhere; the sample as a whole holds those more often. Calls of active or inactive are those of the source. Rule as the data show it: active = growth inhibition above about 70%; inactive = the rest.
Form entry, call: pick from active, inactive

compound: O=c1c2ccccc2ncn1COCc1ccccc1
class_label: inactive

Which outcome was assigned to CCC/C(Cl)=N\OC(=O)Nc1cccc(C(F)(F)F)c1 in this test?
inactive

Also COc1ccccc1/C=C1\Sc2scc(-c3cccc([N+](=O)[O-])c3)[n+]2C1=O , if possible.
active

Also CCOP(=O)(OCC)C(Cc1ccccc1)N=C(c1ccccc1)c1ccccc1 (stereo unspecified) , if possible.
inactive

Also COC(=O)CCNc1c2ccccc2nc2cccc([N+](=O)[O-])c12 , if possible.
active

Also O=CNc1ccc2c(c1)C(=O)c1ccccc1-2 , if possible.
inactive

* * *

Test: NCI Yeast Anticancer Drug Screen. Data for the CLN2oe strain (AID 163);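 also: 0% = growth of vehicle-only control cultures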
Details: S. cerevisiae CLN2oe strain, at 1.2 µM, stronger effect = higher value
Compounds without any hit were thinned out: in the full panel of roughly 79,000, 15% have a hit.
readout_name: growth inhibition (%)
# unit: % | format: bare number

Guide cases for growth inhibition, answers given:
smiles_input: CCN(CC)CC[n+]1ccc2c(C)c3[nH]c4ccc(O)cc4c3c(C)c2c1
experimental_result: -8

smiles_input: BrCC[P+](c1ccccc1)(c1ccccc1)c1ccccc1
experimental_result: -21

smiles_input: CC[n+]1ccc2c(C)c3[nH]c4ccc(O)cc4c3c(C)c2c1
experimental_result: 5

Entry C[Si](C)(C)CNC(=O)OCc1ccccc1 : reported growth inhibition = ?
-3

Also CN=C(N)N/N=C/c1ccc2c(c1)Cc1ccccc1-2 , if possible.
-90

Also c1ccc2c(c1)c1ncccc1c1nccnc21 , if possible.
0

* * *

Test: NCI Yeast Anticancer Drug Screen. Data for the bub3 strain (AID 167)
Conditions: S. cerevisiae bub3 mutant strain, at 5.0 µM (retest, dose inferred, filed as 0.5), stronger effect = higher value
This is part of a sample that, as a whole, favours compounds with a hit. Of some 79,000 tested, about 15% had one in any assay. Activity calls are given as the source filed them. Rule as the data show it: active = growth inhibition above about 70%; inactive = the rest.
In this section, each of the compounds is paired with its reported growth inhibition.

Guide cases for growth inhibition, answers given:
compound: COCCOC(=O)CCn1cc(F)c(=O)[nH]c1=O
readout_name: growth inhibition
experimental_result: -8% (inactive)
//
compound: CC(=O)N/N=C/C(C)(C)C(C)(C)/C=N/NC(C)=O
readout_name: growth inhibition
experimental_result: 0% (inactive)
//
compound: COc1cc(C2c3cc4c(cc3OC(NNc3ccccc3)C2C)OCO4)cc(OC)c1OC (stereo unspecified)
readout_name: growth inhibition
experimental_result: 19% (inactive)
//
compound: O=C1C=CC(=O)c2c(O)c(Nc3ccc(OC(F)(F)F)cc3)c(Cl)c(O)c21
readout_name: growth inhibition
experimental_result: 26% (inactive)
//
compound: COC1=CC(=O)C2C(C1=O)C(c1ccc(Cl)cc1)[C@@H]2C (stereo partly specified)
readout_name: growth inhibition
experimental_result: 41% (inactive)

Entry COC1C=COC2(C)Oc3c(C)c(O)c4c(c3C2=O)/C(=N/C2CCC(O)OC2C)C=C(NC(=O)/C(C)=C\C(=O)C2CC2C(O)C(C)C(O)C(C)C(OC(C)=O)C1C)C4=O (stereo unspecified) : reported growth inhibition = ?
-19% (inactive)

Also CCN(CC)CCC(=O)c1ccc(Oc2ccc(F)cc2)cc1 , if possible.
55% (inactive)

Also [N-]=[N+]=NC1=C(c2ccccn2)C(=O)c2cccc3cccc1c23 , if possible.
-11% (inactive)

Also COC1=CC(=O)C(C2(OC(C)C)OC(=O)C(Cl)=C2Cl)=CC1=O (stereo unspecified) , if possible.
30% (inactive)

Also O=C1Nc2ccccc2/C1=C/COc1ccccc1 , if possible.
2% (inactive)

Also CCCCCCCCCCCC1=C(O)C(=O)C=C(O)C1=O , if possible.
81% (active)

Also O=C1C2CC[C@@H]3C(=O)C(Cl)(Cl)[C@@H]3CCC2C1(Cl)Cl (stereo partly specified) , if possible.
-30% (inactive)

Also COC(=O)c1ccc([N+](=O)[O-])c(O)c1 , if possible.
-7% (inactive)

* * *

Test: NCI Yeast Anticancer Drug Screen. Data for the rad50 strain (AID 155);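 also: 0% = growth of vehicle-only cultures of the same strain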
Settings: S. cerevisiae rad50 strain growth inhibition; at 5.0 µM (retest, dose inferred, filed as 0.5); stronger effect = higher value
This is part of a sample that, as a whole, favours compounds with a hit. Of some 79,000 tested, about 15% had one in any assay.
readout_name: growth inhibition (%)
# unit: % | format: bare number

Guide cases for growth inhibition, answers given:
compound: O=C(N=Nc1ccccc1Cl)NNc1ccccc1Cl
growth inhibition, %: -15
//
compound: CN1Cc2ccccc2/C=C\c2ccccc21
growth inhibition, %: -123
//
compound: O=C1C=CC(=O)c2c(O)c(Nc3ccc(OC(F)(F)F)cc3)c(Cl)c(O)c21
growth inhibition, %: 4
//
compound: CCCS(=O)(=O)Nc1ccc(Nc2c3ccccc3nc3ccccc23)c(OC)c1
growth inhibition, %: 79
//
compound: Cc1ccc(-c2ccc(Nc3c4ccccc4nc4ccccc34)cc2)cn1
growth inhibition, %: 81
//
compound: Cc1nn(-c2cc(Cl)ccc2[N+](=O)[O-])c(C)c1Cl
growth inhibition, %: -20
//
compound: O=C1NC(=O)C2C3C=CC(C3)C12 (configuration not stated)
growth inhibition, %: -149
//
compound: O=c1ssc2ncccc12
growth inhibition, %: 24

Then this compound:
Entry CCS(=O)(=O)c1ccc(/C=C/C=N/NC(=S)NCC(C)C)cc1 : reported growth inhibition = ?
5

* * *

Assay: NCI Yeast Anticancer Drug Screen. Data for the bub3 strain (AID 167)
Settings: S. cerevisiae bub3 mutant strain, at 100.0 µM, stronger effect = higher value
Compounds without any hit were thinned out: in the full panel of roughly 79,000, 15% have a hit.
readout_name: growth inhibition (%)
# unit: % | format: bare number

molecule: O=Nc1cccnc1N=O
unit_annotation: %
experimental_result: 98

Entry Oc1ccc(NCn2c(=S)sc3ccccc32)cc1 : reported growth inhibition = ?
98

Also COc1cc(C2c3cc4c(cc3OC(NNc3ccccc3)C2C)OCO4)cc(OC)c1OC (configuration not stated) , if possible.
83

Also O=C1C=CC(=O)N1c1ccc2c(c1)Cc1cc(NC(=O)C(F)(F)F)ccc1-2 , if possible.
39

Also CCCCCCCCCCC(=O)Cl , if possible.
54

Also c1ccc(-c2ccnc3c2ccc2c(-c4ccccc4)ccnc23)cc1 , if possible.
97

Also CCN(CC)CCC(=O)c1ccc(Oc2ccc(F)cc2)cc1 , if possible.
97

Also [N-]=N[N+]#I1OC(C(F)(F)F)(C(F)(F)F)c2ccccc21 , if possible.
97

Also OCC(Cn1cncn1)(c1ccc(F)cc1F)n1cncn1 (configuration not stated) , if possible.
66

Also CCC(C)COC(=O)c1ccc(N=Cc2ccc(C=Nc3ccc(C(=O)OCC(C)CC)cc3)cc2)cc1 (configuration not stated) , if possible.
10

Also O=CC=C(c1ccccc1)c1ccccc1 , if possible.
98

Also COC(=O)c1ccc(CCC2=CC(=O)C(Br)=CC2=O)cc1 , if possible.
29

Also CC(C)c1cc(C(C)C)c(O)c(C([O-])[O-])c1.CC(C)c1cc(C(C)C)c(O)c(C([O-])[O-])c1.CC(C)c1cc(C(C)C)c(O)c(C([OH2+])[OH2+])c1.CC(C)c1cc(C(C)C)c(O)c(C([OH2+])[OH2+])c1.[Cu+2].[Cu+2].[OH3+].[OH3+] , if possible.
70

Also OC1CSCCCSCCSCCCSC1 , if possible.
68

Also CN(C)c1ccc(Sc2ccc3nc(N)nc(N)c3c2)cc1 , if possible.
-9

Also Cc1c(Cl)ccc2c1S(=O)(=O)c1cccc(Cl)c1-2 , if possible.
-18

* * *

Test: NCI Yeast Anticancer Drug Screen. Data for the rad50 strain (AID 155);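 also: 0% = growth of vehicle-only cultures of the same strain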
Conditions: S. cerevisiae rad50 strain growth inhibition; at 50.0 µM (retest, dose inferred, filed as 5.0); stronger effect = higher value
About 79,000 compounds went through this panel and 15% of them were active in at least one assay; those are over-represented in the sample as a whole.
In this section, each of the molecules is paired with its reported growth inhibition.
# unit: % | format: bare number

molecule: CC(C)C1=CCC2C(=C1)CCC1C(C)(C(=O)O)CCCC21C (stereo not given) (tested in a mixture with another compound)
unit_annotation: %
growth inhibition: 98

Entry CC(=O)Nc1ccc(SC(C)=O)cc1 : reported growth inhibition = ?
100

Also O=[n+]1c2ccc(Cl)cc2n([O-])c2ccc(Cl)cc21 , if possible.
47

Also COc1ccc(NC(=S)N/N=C(\c2ccccc2)c2ccccn2)cc1 , if possible.
89

Also CO[C@H]1C[C@](C)(O)Cc2cc3c(c(O)c21)C(=O)c1c(O)cc2c(c1C3=O)O[C@@H]1O[C@@]2(C)[C@H](O)[C@@H](N(C)C)[C@@H]1O , if possible.
75
